Would you mind telling me the reported kon of each entry?
Target: T1, Recombinant human DSG2 protein (Leinco Technologies) (human, UniProt Q14126 50-609)
T1 construct: also called soluble DSG2; soluble recombinant DSG2
T1 sequence: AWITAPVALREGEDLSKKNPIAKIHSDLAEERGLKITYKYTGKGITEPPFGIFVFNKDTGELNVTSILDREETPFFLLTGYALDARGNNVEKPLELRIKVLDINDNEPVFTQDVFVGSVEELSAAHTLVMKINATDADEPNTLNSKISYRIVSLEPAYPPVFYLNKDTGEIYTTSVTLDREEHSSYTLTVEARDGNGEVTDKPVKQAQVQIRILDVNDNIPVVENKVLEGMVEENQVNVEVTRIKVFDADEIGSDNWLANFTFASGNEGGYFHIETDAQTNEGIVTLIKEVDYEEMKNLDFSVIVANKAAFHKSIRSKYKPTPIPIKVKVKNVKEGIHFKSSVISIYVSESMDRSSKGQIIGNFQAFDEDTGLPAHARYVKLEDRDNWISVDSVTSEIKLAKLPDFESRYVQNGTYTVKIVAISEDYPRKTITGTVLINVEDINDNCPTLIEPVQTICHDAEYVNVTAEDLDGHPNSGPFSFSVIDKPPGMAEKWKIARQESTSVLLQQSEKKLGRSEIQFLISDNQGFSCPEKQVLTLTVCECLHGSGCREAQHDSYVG
Assay: SPR (BIAcore 3000), DSG2 immobilised on the sensor chip, knobs injected at 2.5 to 10 µg/ml, BIAeval
Answers are plain numbers, in M⁻¹ s⁻¹.

Hello, I would appreciate it if you could give kon for each entry below.
1. Ad3 fiber knob mutant V239D without dimerization domain (ligand, range 108-319; also called V239D/noDD; not shown: N-terminal 6-His tag of pQE30 and linker) NKLCSKLGNGLTFDSSNSIALKNNTLWTGPKPEANCIIEYGKQNPDSKLTLILVKNGGIVNGYVTLMGASDYVNTLFKNKNVSINVELYFDATGHILPDSSSLKTDLELKYKQTADFSARGFMPSTTAYPFDLPNAGTHNENYIFGQCYYKASDGALFPLEVTVMLNKRLPDSRTSYVMTFLWSLNAGLAPETTQATLITSPFTFSYIREDD
2. Ad3 fiber knob mutant N293S without dimerization domain (ligand, range 108-319; also called N293S/noDD; not shown: N-terminal 6-His tag of pQE30 and linker) NKLCSKLGNGLTFDSSNSIALKNNTLWTGPKPEANCIIEYGKQNPDSKLTLILVKNGGIVNGYVTLMGASDYVNTLFKNKNVSINVELYFDATGHILPDSSSLKTDLELKYKQTADFSARGFMPSTTAYPFVLPNAGTHNENYIFGQCYYKASDGALFPLEVTVMLNKRLPDSRTSYVMTFLWSLSAGLAPETTQATLITSPFTFSYIREDD
3. Ad3 fiber knob mutant Y250F without dimerization domain (ligand, range 108-319; also called Y250F/noDD; not shown: N-terminal 6-His tag of pQE30 and linker) NKLCSKLGNGLTFDSSNSIALKNNTLWTGPKPEANCIIEYGKQNPDSKLTLILVKNGGIVNGYVTLMGASDYVNTLFKNKNVSINVELYFDATGHILPDSSSLKTDLELKYKQTADFSARGFMPSTTAYPFVLPNAGTHNENFIFGQCYYKASDGALFPLEVTVMLNKRLPDSRTSYVMTFLWSLNAGLAPETTQATLITSPFTFSYIREDD
4. Ad3 fiber knob mutant E248G+K258E without dimerization domain (ligand, range 108-319; not shown: N-terminal 6-His tag of pQE30 and linker) NKLCSKLGNGLTFDSSNSIALKNNTLWTGPKPEANCIIEYGKQNPDSKLTLILVKNGGIVNGYVTLMGASDYVNTLFKNKNVSINVELYFDATGHILPDSSSLKTDLELKYKQTADFSARGFMPSTTAYPFVLPNAGTHNGNYIFGQCYYEASDGALFPLEVTVMLNKRLPDSRTSYVMTFLWSLNAGLAPETTQATLITSPFTFSYIREDD

result:
1. 107000
2. 1190
3. 232000
4. 29800
